Hello, the source for this data is PubChem BioAssay (NCI), in case you need it.

Could you please report measured growth for the items listed next?
System: PC-3 prostate
assay comment: NCI-60 one-dose screen, 48 h (100 = growth as untreated, 0 = no growth, -100 = all killed)
cond: 10 µM unless noted
The panel holds about 83,000 compounds, 20% with a hit somewhere; the sample as a whole holds those more often.
One number for each entry, in %.

molecule	reported property	units of measure	reported result
COc1ncc(-c2ccc3nccc(C#CCN4CCN(S(C)(=O)=O)CC4)c3c2)cc1NS(=O)(=O)c1ccc(F)cc1F	growth	%	0.156
Cc1nc(N)[nH]c(=O)c1C	growth	%	117
O=C(NN(C(=O)c1ccccc1)c1cccs1)c1ccccc1	growth	%	83.4
COC(=O)C[C@@H]1CC=CC(=O)/C1=C(O)/C=C/c1ccccc1	growth	%	3.43
CSc1nc2c(c(=O)[nH]1)C(c1ccc(Cl)cc1)C1=C(N2)/C(=C/c2ccc(Cl)cc2)CNC1 (centres undefined)	growth	%	42

Respectfully, I request growth for each entry included below.
1. Cc1nn(-c2ccc(Cl)cc2)c2nc3c(nc12)C(=O)C(=O)c1ccccc1-3
2. Clc1ccc(CCC(Cn2ccnc2)Sc2c(Cl)cccc2Cl)cc1 (centres undefined)
3. CC[C@]1(O)CC2CN(CCc3c([nH]c4ccccc34)[C@@](C(=O)OC)(c3cc4c(cc3OC)N(C)[C@H]3[C@@](O)(C(=O)OC)[C@H](OC(C)=O)[C@]5(CC)C=CCN6CC[C@]43[C@@H]65)C2)C1 (some centres undefined)
4. CSc1nnc(C2=CC(=O)c3ccccc3C2=O)n1-c1ccccc1

Out:
73.9
26.5
28.1
86.7

====

System: MDA-MB-231 breast
assay comment: NCI-60 one-dose screen, 48 h (100 = growth as untreated, 0 = no growth, -100 = all killed)
cond: 10 µM unless noted
The panel holds about 83,000 compounds, 20% with a hit somewhere; the sample as a whole holds those more often.
Could you please report measured growth for the items listed next?
Numbers only, in %.

                                   molecule  reported_property  reported_result
0  c1coc([C@@H]2C[C@@H]3Cc4ccc5ccccc5c4N2O3)c1             growth              108
1  C[C@]12CC[C@@H]3c4ccc(O)c([N+](=O)[O-])c4CC[C@H]3[C@@H]1CC[C@@H]2NS(=O)(=O)c1cccc(Br)c1             growth             26.7
2  Oc1[nH]c2ccccc2c1/C=c1/ccc2c(c1)N=C(c1cc(F)cc(F)c1)N=2             growth             53.8
3   COc1cc(NC(=O)c2cc3ccccc3cc2O)c(OC)cc1Cl             growth             18.5

Moving on to the next molecule.
The reported growth value, MDA-MB-231 breast, for CCn1c2c(c3ccccc31)SC1c3cccn3CCN1C2=S (stereo not given) reads 96.7

====

Could you please report measured growth for the items listed next?
System: EKVX NSCLC
assay comment: NCI-60 one-dose screen, 48 h (100 = growth as untreated, 0 = no growth, -100 = all killed)
cond: 10 µM unless noted
The panel holds about 83,000 compounds, 20% with a hit somewhere; the sample as a whole holds those more often.
Answers are plain numbers, in %.

Example entries begin here.
>>> df
                                   molecule  reported_result
0  CC1=NN(c2ccccc2Cl)C(=O)/C1=C\c1cn(S(=O)(=O)c2ccc(C)cc2)c2ccccc12               98
1        NC(N)=N/N=C(/c1ccccc1)c1ccc(Cl)cc1             60.6
2  O=[P@@]1(c2ccccc2)O[C@H](COCc2ccccc2)[C@@H](OCc2ccccc2)[C@H](OCc2ccccc2)[C@H]1NCc1ccccc1             17.6
3  O=C(Nc1ncc([N+](=O)[O-])s1)c1cccc([N+](=O)[O-])c1             37.9
4  O=C1c2ccccc2C(=O)c2c1cccc2-n1nnc2ccccc21              112
5  c1cncc(CNc2ccccc2-c2nnc(Nc3ccc4c(c3)OCO4)o2)c1             35.3
6  CCOC(=O)C1=C(COCCN)NC(C)=C(C(=O)OC)C1c1ccccc1Cl (configuration not stated)             83.9
7  Cn1cc(-c2nc(-c3c[nH]c4ncc(F)cc34)cs2)c2cccnc21             84.3

Respectfully, I request growth for each entry included below.
1. CC1=C(C(=O)Nc2ccccc2)C(c2ccc3c(c2)OCCO3)NC(=O)N1 (configuration not stated)
2. Cc1cc2cn3c4cccnc4[nH]c(=O)c3c2cc1C
3. NC(N)=NN=c1c(=O)c2ccccc2c1=O

Out:
1. 112
2. 76.7
3. 118

The reported growth value, EKVX NSCLC, for OCCOc1c(Cl)cc(Cl)cc1Cl reads 106
